# System: MCF7 CARM1 KO cells
# Test protocol: Quantitative MS of ADMA-containing peptides in MCF7 CARM1 KO cells expressing CARM1 28-608 or CARM1 140-608, and in CARM1 KO
# Assay type: cell-based, human
KO/WT for assorted substances
Readout kind: KO/WT

>>> reading("LGQDPYrLGHDPYR")
-1.973
>>> reading("ISSSSFSrVGSSNFR")
-3.151
>>> reading("GMYNQrYHCPVPK")
-2.857
>>> reading("QLQLQQQrMQLAQK")
-4.55
>>> reading("ANYNFrGMYNQrYHCPVPK")
-3.002
>>> reading("LGHDPYrLGHDAYrLGQDPYrLGHDPYR")
-1.602
>>> reading("LGHDAYrLGQDPYR")
-1.081
>>> reading("LAQDPYrLGHDPYR")
-0.6293
>>> reading("SPFLGSArPrLR")
-3.721
>>> reading("LGHDAYrLGQDPYrLGHDPYR")
-1.784
